The values you see were collected from ChEMBL document CHEMBL1933028.

assay name: Oral bioavailability in rat at 1 mg/kg
Type: ADME, organism-based
conditions: in vivo
observed property: bioavailability
For clarity, give the value followed by its unit.

Any idea what its bioavailability is? The compound is "Cc1nc(-c2ccc(Cl)cc2)sc1C(=O)N[C@H]1CCCN(c2cccc(C(=O)O)c2)C1" 47.6%

---

Overview of recorded pEC50 for various compounds
subject of test: Peroxisome proliferator-activated receptor delta (Homo sapiens, UniProt Q03181)
Sequence (Q03181 whole entry): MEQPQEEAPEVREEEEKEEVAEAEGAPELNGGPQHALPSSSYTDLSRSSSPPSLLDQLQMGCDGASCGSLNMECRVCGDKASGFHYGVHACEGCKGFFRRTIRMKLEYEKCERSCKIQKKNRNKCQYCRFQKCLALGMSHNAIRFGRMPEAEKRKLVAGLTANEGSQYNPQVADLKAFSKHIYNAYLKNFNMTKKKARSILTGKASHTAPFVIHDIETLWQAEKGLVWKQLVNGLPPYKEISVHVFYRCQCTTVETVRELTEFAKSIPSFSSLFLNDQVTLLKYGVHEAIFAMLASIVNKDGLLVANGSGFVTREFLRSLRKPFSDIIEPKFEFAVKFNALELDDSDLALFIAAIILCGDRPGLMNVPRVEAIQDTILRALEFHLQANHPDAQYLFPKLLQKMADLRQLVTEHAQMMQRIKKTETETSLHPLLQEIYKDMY
assay name: Transactivation of human PPARdelta expressed in CHO-K1 cells
Format: cell-based
pEC50: −log10 of the molar value.

Known pEC50 results, listed for orientation:
- compound: "Cc1nc(-c2ccc(Cl)cc2)sc1CCC1CCCN(c2cccc(C(=O)O)c2)C1 (stereo not drawn)"
  pEC50: "< 5.17"
- compound: "Cc1nc(-c2ccc(Cl)cc2)sc1CNC1CCCN(c2cccc(C(=O)O)c2)C1 (stereo not drawn)"
  pEC50: "< 4.89"
- compound: "Cc1nc(-c2ccc(Cl)cc2)sc1/C=C/C1CCCN(c2cccc(C(=O)O)c2)C1 (stereo not drawn)"
  pEC50: "< 5.09"
- compound: "Cc1nc(-c2ccc(Cl)cc2)sc1C(=O)NC1CCCN(c2cccc(C(=O)O)c2)C1 (stereo not drawn)"
  pEC50: "< 5.38"
- compound: "Cc1nc(-c2ccc([N+](=O)[O-])cc2)sc1C(=O)N[C@H]1CCCN(c2cccc(C(=O)O)c2)C1"
  pEC50: "< 4.96"

pEC50 for "Cc1nc(-c2ccc(Cl)cc2)oc1C(=O)N[C@H]1CCCN(c2cccc(C(=O)O)c2)C1" ? < 4.89

Param item: Cc1nc(-c2ccc(Cl)cc2)sc1C(=O)NCC1CN(c2cccc(C(=O)O)c2)CCO1 (stereo not drawn) < 4.77

Next entry: Cc1nc(-c2ccc(Cl)cc2)sc1COC1CCCN(c2cccc(C(=O)O)c2)C1 (stereo not drawn) < 5.20

---

subject of test: Peroxisome proliferator-activated receptor alpha (Homo sapiens)
Sequence (Q07869 whole entry): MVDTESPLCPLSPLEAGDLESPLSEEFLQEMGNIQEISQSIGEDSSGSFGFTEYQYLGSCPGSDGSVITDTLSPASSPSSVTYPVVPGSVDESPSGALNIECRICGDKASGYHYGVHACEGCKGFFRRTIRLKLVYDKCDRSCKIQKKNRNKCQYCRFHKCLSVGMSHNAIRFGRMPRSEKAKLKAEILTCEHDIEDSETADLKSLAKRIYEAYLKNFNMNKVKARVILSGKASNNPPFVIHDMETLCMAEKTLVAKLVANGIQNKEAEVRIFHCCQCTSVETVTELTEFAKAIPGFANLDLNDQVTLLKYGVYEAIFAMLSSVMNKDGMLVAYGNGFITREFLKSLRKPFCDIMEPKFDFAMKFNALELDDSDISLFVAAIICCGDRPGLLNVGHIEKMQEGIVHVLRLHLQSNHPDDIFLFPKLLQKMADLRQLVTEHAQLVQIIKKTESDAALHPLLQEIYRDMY
assay name: Transactivation of human PPARalpha expressed in CHO-K1 cells
pEC50: −log10 of the molar value.
observed property: pEC50

Take a look at these entries with their results.
- molecule: "Cc1sc(-c2ccc(Cl)cc2)nc1C(=O)N[C@H]1CCCN(c2cccc(C(=O)O)c2)C1"
  result: "< 5.47"
- molecule: "Cc1nc(-c2ccc(Cl)cc2)sc1C(=O)NC1CCCN(c2ccccc2C(=O)O)C1 (centres undefined)"
  result: "< 5.22"
- molecule: "Cc1nc(-c2ccc(Cl)cc2)sc1C(=O)NCC1CCN(c2cccc(C(=O)O)c2)CC1"
  result: "< 5.46"

Field request: pEC50 | item: Cc1nc(-c2ccc(Cl)cc2)sc1CNC(=O)C1CCCN(c2cccc(C(=O)O)c2)C1 (centres undefined) < 4.85
